Target: Epidermal growth factor receptor (Homo sapiens, UniProt P00533)
Sequence (P00533 whole entry): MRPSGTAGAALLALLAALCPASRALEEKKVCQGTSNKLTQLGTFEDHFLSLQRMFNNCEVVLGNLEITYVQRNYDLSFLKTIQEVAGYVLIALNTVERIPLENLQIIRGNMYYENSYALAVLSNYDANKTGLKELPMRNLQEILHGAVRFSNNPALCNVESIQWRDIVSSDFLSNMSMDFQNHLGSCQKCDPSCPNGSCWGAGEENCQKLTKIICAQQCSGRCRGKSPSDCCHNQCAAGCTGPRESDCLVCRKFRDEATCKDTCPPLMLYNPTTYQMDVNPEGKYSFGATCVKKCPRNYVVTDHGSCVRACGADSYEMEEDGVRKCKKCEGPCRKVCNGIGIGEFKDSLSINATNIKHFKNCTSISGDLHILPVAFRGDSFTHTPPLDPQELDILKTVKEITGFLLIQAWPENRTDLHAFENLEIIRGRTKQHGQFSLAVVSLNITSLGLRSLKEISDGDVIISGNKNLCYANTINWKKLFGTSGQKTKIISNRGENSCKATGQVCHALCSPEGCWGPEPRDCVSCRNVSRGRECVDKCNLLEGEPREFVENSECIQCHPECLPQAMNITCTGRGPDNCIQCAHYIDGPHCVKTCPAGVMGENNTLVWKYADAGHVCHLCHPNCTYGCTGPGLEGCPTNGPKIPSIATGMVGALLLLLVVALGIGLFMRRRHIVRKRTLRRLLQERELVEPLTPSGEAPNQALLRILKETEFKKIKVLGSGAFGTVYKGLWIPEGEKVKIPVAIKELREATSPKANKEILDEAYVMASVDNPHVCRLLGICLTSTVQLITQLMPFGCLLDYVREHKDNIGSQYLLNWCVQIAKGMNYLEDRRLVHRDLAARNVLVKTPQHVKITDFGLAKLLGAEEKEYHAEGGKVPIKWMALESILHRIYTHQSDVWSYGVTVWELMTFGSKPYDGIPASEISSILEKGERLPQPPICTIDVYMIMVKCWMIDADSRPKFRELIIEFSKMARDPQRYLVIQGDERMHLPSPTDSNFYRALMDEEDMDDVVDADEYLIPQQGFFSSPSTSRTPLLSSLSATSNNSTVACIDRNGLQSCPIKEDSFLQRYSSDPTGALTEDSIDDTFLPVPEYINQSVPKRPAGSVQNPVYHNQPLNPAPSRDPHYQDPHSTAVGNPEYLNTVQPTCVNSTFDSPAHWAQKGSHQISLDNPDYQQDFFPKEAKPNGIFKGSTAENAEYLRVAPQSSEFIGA
Test: Inhibition of recombinant EGFR (unknown origin) after 10 mins by DELFIA/time-resolved fluorometry
MEASURED_ATTRIBUTE: pIC50
Field pIC50 (float): negative decimal logarithm of the concentration in molar.

// known answers, use as guide
[
  {
    "SMILES_STRING": "CCOc1cc([N+](=O)[O-])c(C(=O)Nc2ccc(OCc3cccc(F)c3)c(Cl)c2)cc1NC(=O)/C=C/CN(C)C",
    "TARGET_SYSTEM": "Epidermal growth factor receptor (Homo sapiens, UniProt P00533)",
    "EXPERIMENTAL_VALUE": 5.70
  },
  {
    "SMILES_STRING": "CN1CCN(Cc2ccc(C(=O)Nc3ccc(-c4cncc(C#N)c4Nc4ccc(OCc5cccc(F)c5)c(Cl)c4)cc3)cc2)CC1",
    "TARGET_SYSTEM": "Epidermal growth factor receptor (Homo sapiens, UniProt P00533)",
    "EXPERIMENTAL_VALUE": 5.60
  },
  {
    "SMILES_STRING": "Cc1ccc(NC(=O)c2ccc(CN3CCN(C)CC3)cc2)cc1C(=O)Nc1ccc(OCc2cccc(F)c2)c(Cl)c1",
    "TARGET_SYSTEM": "Epidermal growth factor receptor (Homo sapiens, UniProt P00533)",
    "EXPERIMENTAL_VALUE": 6.22
  },
  {
    "SMILES_STRING": "CCOc1cc(N)c(C(=O)Nc2ccc(OCc3cccc(F)c3)c(Cl)c2)cc1NC(=O)c1ccc(CN2CCN(C)CC2)cc1",
    "TARGET_SYSTEM": "Epidermal growth factor receptor (Homo sapiens, UniProt P00533)",
    "EXPERIMENTAL_VALUE": 5.30
  },
  {
    "SMILES_STRING": "CN(C)C/C=C/C(=O)Nc1ccc(-c2cncc(C#N)c2Nc2ccc(F)c(Cl)c2)cc1",
    "TARGET_SYSTEM": "Epidermal growth factor receptor (Homo sapiens, UniProt P00533)",
    "EXPERIMENTAL_VALUE": 5.46
  },
  {
    "SMILES_STRING": "Cc1ncnc(Nc2ccc(OCc3cccc(F)c3)c(Cl)c2)c1C#Cc1ccc(CNCCS(C)(=O)=O)o1",
    "TARGET_SYSTEM": "Epidermal growth factor receptor (Homo sapiens, UniProt P00533)",
    "EXPERIMENTAL_VALUE": 7.35
  },
  {
    "SMILES_STRING": "CCOc1cc([N+](=O)[O-])c(C(=O)Nc2ccc(OCc3cccc(F)c3)c(Cl)c2)cc1NC(=O)c1ccc(CN2CCN(C)CC2)cc1",
    "TARGET_SYSTEM": "Epidermal growth factor receptor (Homo sapiens, UniProt P00533)",
    "EXPERIMENTAL_VALUE": 5.26
  },
  {
    "SMILES_STRING": "CN1CCN(Cc2ccc(C(=O)Nc3ccc(-c4cncc(C#N)c4Nc4ccc(F)c(Cl)c4)cc3)cc2)CC1",
    "TARGET_SYSTEM": "Epidermal growth factor receptor (Homo sapiens, UniProt P00533)",
    "EXPERIMENTAL_VALUE": 5.52
  }
]

Data request, read-out pIC50, for CCOc1ccc(C(=O)Nc2ccc(OCc3ccccn3)c(Cl)c2)cc1NC(=O)c1ccc(CN2CCN(C)CC2)cc1
5.46

Data request, read-out pIC50, for CCOc1cc([N+](=O)[O-])c(C(=O)Nc2ccc(F)c(Cl)c2)cc1NC(=O)/C=C/CN(C)C
5.22
